Readings of Max Response for the listed binders
measuredTarget: T1, human BKB2R-derived epitope peptide (SEQ ID NO:73), PEG-biotin (human, also: PEG-biotin, site not given here)
T1 construct: also called immunogenic human BKB2R peptide fragment
T1 peptide: KEYSDEGHNVTAC
assayProtocol: BLI (Octet), peptide-PEG-biotin on streptavidin sensor, antibody 250 nM
Where no end group is shown, it is not given here.
Kindly provide the number alone.

Recorded results for 2 binders are shown here.
- binder: "humanized anti-BKB2R antibody L1/H2 (antibody, human IgG2, kappa, V domains shown) VH: EVQLVESGGGLVQPGGSLRLSCVASGFTFSDYWMSWVRQAPGKGLEWVAEIRLKSDNYATHYAESVKGRFTISRDDAKNSLYLQMNSLRAEDTAVYYCTRDYYAMEYWGQGTLVTVSS VL: DIVMTQSPLSLPVTPGEPASISCRSSQTIVHSNGKTYLEWYLQKPGQSPQLLIYKVSNRFSGVPDRFSGSGSGTDFTLKISRVEAEDVGVYYCFQASHVPYTFGQGTKLEIKR"
  measure: "Max Response"
  endpointValue: 0.174
- binder: "chimeric/humanized anti-BKB2R antibody L1/HC (antibody, human IgG2, V domains shown, not shown: human IgG2 constant region) VH: EVKLEESGGGLVQPGGSMKLSCVVSGFTFSDYWMSWVRHSPEMGLEWVAEIRLKSDNYATHYAESVKGRFTISRDDSKSRLYLQINSLRGEDTGIYYCTRDYYAMEYWGQGTSVTVSS VL: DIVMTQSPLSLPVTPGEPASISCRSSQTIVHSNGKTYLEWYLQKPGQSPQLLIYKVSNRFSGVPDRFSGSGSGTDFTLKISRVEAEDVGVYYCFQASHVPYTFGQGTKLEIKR"
  measure: "Max Response"
  endpointValue: 0.148

Lab book: Max Response of humanized anti-BKB2R antibody L2/H2 (antibody, human IgG2, kappa, V domains shown, also called H2/L2) VH: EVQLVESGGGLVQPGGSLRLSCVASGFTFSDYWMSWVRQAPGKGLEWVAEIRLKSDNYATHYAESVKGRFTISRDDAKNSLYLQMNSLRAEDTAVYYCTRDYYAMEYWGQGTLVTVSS VL: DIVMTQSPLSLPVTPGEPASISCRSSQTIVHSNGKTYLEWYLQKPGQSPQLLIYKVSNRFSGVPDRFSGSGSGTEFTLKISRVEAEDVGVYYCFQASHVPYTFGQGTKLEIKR noted as 0.171
